STUDY SYSTEM: bovine spleen Cathepsin B (Bos taurus, UniProt P07688)
Construct: bovine spleen Cathepsin B (SigmaAldrich C6286, ≥10 units/mg protein); purchased SigmaAldrich C6286; host or cells: bovine spleen (tissue-derived)
TEST: Cathepsin B cleavage assay (UHPLC-HRMS Orbitrap analysis)
Assay type: biochemical
CONDITION: replicate R3, 240 min
Starred links: 1 amine or outer side, 2 acyl side, 3 side chain; linkers in the order of their positions; H or OH if unused. Non-standard residues stand in square brackets, D forms with d. Residues, ends and D or L forms follow the SMILES beside them. *: point of attachment. Paclitaxel(2'-OCO-DMEDA) = CC(=O)O[C@H]1C(=O)[C@@]2(C)[C@H]([C@H](OC(=O)c3ccccc3)[C@]3(O)C[C@H](OC(=O)[C@H](OC(=O)N(C)CCN(C)*)[C@@H](NC(=O)c4ccccc4)c4ccccc4)C(C)=C1C3(C)C)[C@]1(OC(C)=O)CO[C@@H]1C[C@@H]2O; Fmoc = O=C(OCC1c2ccccc2-c2ccccc21)*; PABC = O=C(OCc1ccc(N[*:1])cc1)[*:2]
For each entry below, report its % residual compound, % R3 value.
Give bare numbers, in %.

Past entries and their recorded results:
>  <COMPOUND>
CC(=O)O[C@H]1C(=O)[C@@]2(C)[C@H]([C@H](OC(=O)c3ccccc3)[C@]3(O)C[C@H](OC(=O)[C@H](OC(=O)N(C)CCN(C)C(=O)OCc4ccc(NC(=O)[C@H](C)NC(=O)[C@@H](NC(=O)OCC5c6ccccc6-c6ccccc65)C(C)C)cc4)[C@@H](NC(=O)c4ccccc4)c4ccccc4)C(C)=C1C3(C)C)[C@]1(OC(C)=O)CO[C@@H]1C[C@@H]2O

>  <STUDY SYSTEM>
bovine spleen Cathepsin B (Bos taurus, UniProt P07688)

>  <MEASUREMENT LABEL>
% residual compound, % R3

>  <READOUT UNIT>
%

>  <MEASUREMENT>
49.81

$$$$
>  <COMPOUND>
CC(=O)O[C@H]1C(=O)[C@@]2(C)[C@H]([C@H](OC(=O)c3ccccc3)[C@]3(O)C[C@H](OC(=O)[C@H](OC(=O)N(C)CCN(C)C(=O)OCc4ccc(NC(=O)[C@H](CCCNC(N)=O)NC(=O)[C@@H](NC(=O)OCC5c6ccccc6-c6ccccc65)C(C)C)cc4)[C@@H](NC(=O)c4ccccc4)c4ccccc4)C(C)=C1C3(C)C)[C@]1(OC(C)=O)CO[C@@H]1C[C@@H]2O

>  <STUDY SYSTEM>
bovine spleen Cathepsin B (Bos taurus, UniProt P07688)

>  <MEASUREMENT LABEL>
% residual compound, % R3

>  <READOUT UNIT>
%

>  <MEASUREMENT>
71.70

$$$$
>  <COMPOUND>
CC(=O)O[C@H]1C(=O)[C@@]2(C)[C@H]([C@H](OC(=O)c3ccccc3)[C@]3(O)C[C@H](OC(=O)[C@H](OC(=O)N(C)CCN(C)C(=O)OCc4ccc(NC(=O)CNC(=O)[C@H](CC(C)C)NC(=O)[C@H](Cc5ccccc5)NC(=O)CNC(=O)OCC5c6ccccc6-c6ccccc65)cc4)[C@@H](NC(=O)c4ccccc4)c4ccccc4)C(C)=C1C3(C)C)[C@]1(OC(C)=O)CO[C@@H]1C[C@@H]2O [Compound 2, Fmoc-GFLG-PABC-diamine-PTX] (Fmoc-GFLG[PABC]-{Paclitaxel(2'-OCO-DMEDA)})

>  <STUDY SYSTEM>
bovine spleen Cathepsin B (Bos taurus, UniProt P07688)

>  <MEASUREMENT LABEL>
% residual compound, % R3

>  <READOUT UNIT>
%

>  <MEASUREMENT>
89.52

$$$$

Consider the additional compound presented here.
Fill in the blank: the reported % residual compound, % R3 of CC(=O)O[C@H]1C(=O)[C@@]2(C)[C@H]([C@H](OC(=O)c3ccccc3)[C@]3(O)C[C@H](OC(=O)[C@H](OC(=O)N(C)CCN(C)C(=O)OCc4ccc(NC(=O)CNC(=O)[C@H](CC(C)C)NC(=O)[C@@H]5CCCN5C(=O)CNC(=O)OCC5c6ccccc6-c6ccccc65)cc4)[C@@H](NC(=O)c4ccccc4)c4ccccc4)C(C)=C1C3(C)C)[C@]1(OC(C)=O)CO[C@@H]1C[C@@H]2O [Compound 1, Fmoc-GPLG-PABC-diamine-PTX] (Fmoc-GPLG[PABC]-{Paclitaxel(2'-OCO-DMEDA)}) is ____. 70.97
